# Experimental System: T1, recombinant μ4 C-terminal domain (human, residues 160–453) (human, UniProt O00189 160-453)
# T1 sequence (looked up): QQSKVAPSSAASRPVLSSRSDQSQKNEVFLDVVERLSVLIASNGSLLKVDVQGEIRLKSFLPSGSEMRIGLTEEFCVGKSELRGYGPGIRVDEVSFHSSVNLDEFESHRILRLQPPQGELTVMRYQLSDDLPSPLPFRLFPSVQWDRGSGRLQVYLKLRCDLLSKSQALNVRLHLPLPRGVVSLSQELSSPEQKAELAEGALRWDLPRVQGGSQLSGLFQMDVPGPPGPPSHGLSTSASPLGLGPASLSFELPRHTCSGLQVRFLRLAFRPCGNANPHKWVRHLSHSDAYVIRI
# Assay Info: ITC
Observable: pKd
The value called pKd is obtained by taking minus log10 of the concentration in mol/L.

May I ask what pKd has been recorded for YPAAISSFDR [ApoER2 peptide YPAAISSFDR] ?
4.58
